assay: Inhibition of beta lactamase OXA-48 in Klebsiella pneumoniae assessed as decrease in enzyme activity using nitrocefin as chromogenic substrate incubated for 60 mins by absorbance plate reader analysis
Each entry below carries its reported pIC50.
# log scale: pIC50 equals minus log10 of the concentration in mol/L

// below: answered compounds
// recorded pIC50 for CC1=C[C@@H]2CN(C(=O)N2OC(C)(F)C(=O)O)[C@@H]1C(N)=O (stereo partly drawn) : 4.66

Lookup result for "CC1=C[C@@H](C(N)=O)N2C[C@@H]1N(OCC(=O)O)C2=O" ; measured pIC50: 6.28

Next, consider the following compound.
Reported pIC50 ( "CC1=C[C@@H]2CN(C(=O)N2O[C@H](F)C(=O)O)[C@@H]1C(N)=O" ) = 7.82

Ref: ChEMBL document CHEMBL4765376
